Each entry below lists one item and its recorded WBC count value.
Assay: Hematology assays in cynomolgus monkeys (Example 46)
Assay type: in vivo
Conditions: Day 45
Strand notation (5' to 3'): a small letter for the sugar, then the base; units joined by * are phosphorothioate-linked, units joined directly phosphodiester-linked; [ ] holds rarer units or linkages, { } end groups; capitals alone tell only the bases. e = 2'-O-(2-methoxyethyl) (MOE); [5mC] = 5-methylcytosine; d = 2'-deoxy (DNA)

Substance: ISIS 449707: 3-8-3, 4-8-4, 2-10-2, 3-10-3 or 4-10-4 MOE microwalk gapmer (Table 46) (antisense e[5mC]*eA*e[5mC]*eA*dG*dT*dT*dT*d[5mC]*dT*dG*dG*e[5mC]*eA*eG*eG)
WBC count, µL⁻¹: 12000

Substance: ISIS 445531: 5-8-5 or 6-8-6 MOE microwalk gapmer (Table 44) (antisense eG*eG*e[5mC]*eA*eT*dT*dG*dG*dT*dG*d[5mC]*dA*d[5mC]*eA*eG*eT*eT*eT)
WBC count, µL⁻¹: 20000

Substance: ISIS 416858: MOE gapmer, nucleobases 1275 to 1318 of SEQ ID NO: 1 (Table 8) (antisense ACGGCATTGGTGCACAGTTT; MOE gapmer, wing and gap sizes not given here)
WBC count, µL⁻¹: 8000

* * *

System: human Factor 11 mRNA
Experiment: Dose-dependent inhibition of human Factor 11 in HepG2 cells, electroporation 0.7-20 uM (Example 4)
Type: cell-based
Conditions: 0.7 μM, relative to untreated control cells
Strand notation (5' to 3'): a small letter for the sugar, then the base; units joined by * are phosphorothioate-linked, units joined directly phosphodiester-linked; [ ] holds rarer units or linkages, { } end groups; capitals alone tell only the bases. e = 2'-O-(2-methoxyethyl) (MOE); [5mC] = 5-methylcytosine; d = 2'-deoxy (DNA)
Observable: percent inhibition of Factor 11 at 0.7 μM (%)

Substance: 417000 (antisense eT*eG*d[5mC]*dA*d[5mC]*dA*dG*dT*dT*dT*d[5mC]*dT*dG*dG*d[5mC]*eA*eG*eG*e[5mC]*e[5mC]) [compound 417000]
Value Measured: 46

Substance: 416923 (antisense eT*eG*e[5mC]*dA*d[5mC]*dA*dG*dT*dT*dT*d[5mC]*dT*dG*dG*d[5mC]*dA*dG*eG*e[5mC]*e[5mC]) [compound 416923]
Value Measured: 15

Substance: 417003 (antisense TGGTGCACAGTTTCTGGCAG; 2-13-5 gapmer chemistry, further chemistry not given here) [compound 417003]
Value Measured: 0

* * *

Experiment: Hematology assays in cynomolgus monkeys (Example 45)
Assay type: in vivo
Conditions: day 50; escalating dose regimen

Substance: ISIS 416864: MOE gapmer, nucleobases 1275 to 1318 of SEQ ID NO: 1 (Table 8) (antisense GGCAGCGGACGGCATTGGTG; MOE gapmer, wing and gap sizes not given here)
RBC count (µL⁻¹): 5.6e+06

Substance: ISIS 417002: MOE gapmer, nucleobases 1275 to 1318 of SEQ ID NO: 1 (Table 8) (antisense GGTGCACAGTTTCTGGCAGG; MOE gapmer, wing and gap sizes not given here)
RBC count (µL⁻¹): 5.4e+06

* * *

Assay: Hematology assays in cynomolgus monkeys (Example 45)
Assay type: in vivo
Conditions: day 43

Substance: ISIS 416838: MOE gapmer, nucleobases 1018 to 1042 of SEQ ID NO: 1 (Table 6) (antisense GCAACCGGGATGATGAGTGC; MOE gapmer, wing and gap sizes not given here)
basophils (%): 0.4

Substance: ISIS 416858: MOE gapmer, nucleobases 1275 to 1318 of SEQ ID NO: 1 (Table 8) (antisense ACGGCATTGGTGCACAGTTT; MOE gapmer, wing and gap sizes not given here)
basophils (%): 0.3

Substance: ISIS 416864: MOE gapmer, nucleobases 1275 to 1318 of SEQ ID NO: 1 (Table 8) (antisense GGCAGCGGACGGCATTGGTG; MOE gapmer, wing and gap sizes not given here)
basophils (%): 0.4

Substance: ISIS 416850: MOE gapmer, nucleobases 1275 to 1318 of SEQ ID NO: 1 (Table 8) (antisense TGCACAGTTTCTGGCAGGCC; MOE gapmer, wing and gap sizes not given here)
basophils (%): 0.3

Substance: ISIS 417002: MOE gapmer, nucleobases 1275 to 1318 of SEQ ID NO: 1 (Table 8) (antisense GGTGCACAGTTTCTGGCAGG; MOE gapmer, wing and gap sizes not given here)
basophils (%): 0.3
